Tested on: Glutamate receptor ionotropic, NMDA 3A (GRIN3A) ligand-binding domain
Assay: binders of NR3A ligand-binding domain, primary screen, biophysical, differential scanning fluorimetry, uHTS (AID 1259313)
Settings: NR3A LBD differential scanning fluorimetry, at 25 µM, 0% = protein alone, 100% = glycine-bound protein
The campaign covered roughly 340,000 compounds. About 8,500 (2.5%) were called active.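 How the source made its calls: active means melting temperature shift of at least 10% of the positive control shift, at one fixed dose; inactive means the rest.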 For the sample, actives were picked, then their nearest neighbours and some compounds at random.
Outcome field: choose from Y for active, N for inactive

Asked: Write down the call the test reported for this compound. Item: O=C(Nc1cc(C(F)(F)F)ccc1Cl)C(=O)N1CCCCC1
Given back: N

Asked: Test call for this compound, please: Cc1cccc(NC(=S)Nc2ccc(Cl)c(Cl)c2)c1
Given back: Y

Asked: Fill in: this test's call for O=S(=O)(NC1CCCCC1N1CCN(c2ccccc2F)CC1)c1ccccc1 (centres undefined) is ___
Given back: N

Asked: Lab log entry: Cc1cc(Cl)nc(NC(=O)Nc2cccc(Cl)c2)n1 — outcome as called in the assay?
Given back: N

Asked: I would be grateful if you could indicate the recorded call for COc1cc(/C=N/NC(=O)CCc2n[nH]c(=O)[nH]c2=O)ccc1O .
Given back: N

Asked: Given COc1ccc(OC)c(-c2csc(NC(=O)COC(=O)C3CC3)n2)c1 , state the outcome it received in this test.
Given back: N

Asked: Assay outcome for O=C(CSc1ccc(-c2ccccn2)nn1)Nc1ccccc1 : what was it?
Given back: N

Asked: How did this test come out for O=C(CSc1ccccc1)Nc1ccc(C(=O)Nc2cccc(O)c2)cc1 ?
Given back: Y

Asked: Record lookup: outcome of this test for Cc1cc(NC(=O)Nc2ccc(Cl)cc2)n(-c2ccccc2)n1 ?
Given back: N

Asked: Please share the test call associated with Cc1ccc(NC(=O)COc2ccc(-n3ccnc3)cc2)cc1Cl .
Given back: N

Asked: Just curious, what result did O=C(Nc1ccc(OCC(=O)N2CCOCC2)cc1)c1cc(F)c(F)cc1Cl get here?
Given back: N

Asked: Hello, I am checking results. What call was entered for CCc1ccc(NC(=O)C(C)OC(=O)/C=C/c2cccc([N+](=O)[O-])c2)cc1 (centres undefined) ?
Given back: N

Asked: Hey, what did the test say about NCC(=O)c1cccc2ccc[n+]([O-])c12 ?
Given back: N

Asked: Check the results log: what was the call for COCc1nc2ccccc2n1Cc1ccccc1Br ?
Given back: N

Asked: What call does the record list for CC(=O)Nc1ccc(Nc2nc3c(S(=O)(=O)c4ccc(C)c(C)c4)nnn3c3ccccc23)cc1 ?
Given back: Y

Asked: Each compound tested received a call. Report the one for CCOCCCNC(=O)C(=O)NCCCOCC .
Given back: N

Asked: For CCOc1cc(/C=N/Nc2cc(C)nc3ccc(C)cc23)ccc1O , which call appears in the assay record?
Given back: N

Asked: Lab log entry: CCOc1ccccc1Oc1cn[nH]c1-c1ccc(OC)cc1O — outcome as called in the assay?
Given back: N

Asked: I'd appreciate the recorded outcome for COc1ccc(-c2cn[nH]c2-c2ccc(OC)cc2)cc1 from this test.
Given back: N

###

Test system: Glutamate receptor ionotropic, NMDA 3A (GRIN3A) ligand-binding domain
Test: binders of NR3A ligand-binding domain, primary screen, biophysical, differential scanning fluorimetry, uHTS (AID 1259313)
Conditions: NR3A LBD differential scanning fluorimetry, at 25 µM, 0% = protein alone, 100% = glycine-bound protein
Out of some 340,000 compounds screened, about 8,500 (2.5%) were called active.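 The calls were made as follows: active = melting temperature shift of at least 10% of the positive control shift, at one fixed dose; inactive = the rest.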 The list comes from a sample in which actives are over-represented; it also holds close analogues and randomly drawn compounds.
Field 'call' accepts Y (active), N (inactive)

Asked: Per the records of this test, what outcome belongs to O=C(COC(=O)c1c2c(nc3ccccc13)/C(=C\c1cccs1)CCC2)Nc1ccccc1Cl ?
Given back: Y

Asked: Assay result, entry CC(C)c1cc(CN2CCOCC2)cc(C(C)C)c1O — outcome?
Given back: N

Asked: Assay result, entry NS(=O)(=O)c1ccc(NC(=O)COC(=O)CCc2c[nH]c3ccccc23)cc1 — outcome?
Given back: N

Asked: Just curious, what result did COCCOC(=O)C1=C(C)N=c2s/c(=C\c3cccs3)c(=O)n2C1c1cccs1 (centres undefined) get here?
Given back: N

Asked: Test call for this compound, please: S=C(NCc1ccc(Cl)cc1)NC12CC3CC(CC(C3)C1)C2
Given back: Y

Asked: Field: outcome | Entry: O=C(COc1ccc([N+](=O)[O-])cc1Cl)Nn1cnnc1
Given back: N

Asked: How was O=C(CCC(=O)Nc1ccccc1)N/N=C/c1ccccc1F classified in this test?
Given back: N

Asked: Which outcome was assigned to N#C/C(=C\c1ccccc1)c1n[nH]c(Cn2cncn2)n1 in this test?
Given back: N

Asked: Which outcome was assigned to O=C(CSc1nnc(COc2ccc(Cl)cc2)n1Cc1ccco1)N1CCNC1=O in this test?
Given back: Y

Asked: Any idea what this test logged for Cc1ccc(NC(=O)Cn2c(=O)n(CCC(=O)NC3CCN(Cc4ccccc4)CC3)c(=O)c3ccccc32)cc1 ?
Given back: N

Asked: For OCCCC1CCCCN1Cc1nc(Cc2ccccc2Cl)no1 (centres undefined) , which call appears in the assay record?
Given back: N

Asked: Give the logged outcome of this assay for the following compound: O=C(Cc1ccccc1)Nc1cccc(C(=O)N/N=C/c2ccco2)c1
Given back: N

Asked: Dear all, I need the recorded test outcome for COc1cc(/C=C2\CCCc3c2nc2ccccc2c3C(=O)O)cc(Cl)c1O , thank you.
Given back: N

Asked: Short answer needed: outcome of this test for O=C(Nc1cccc(C(=O)NC2CC2)c1)c1ccc(F)c(S(=O)(=O)N2CCOCC2)c1 ?
Given back: N
